All figures here come from patent US20150105252A1.

# System: rice
# Test: Test B flood
# Type: in vivo, Oryza sativa
# Condition label: 250 g ai/ha, visual rating on 0 to 100 scale (0 no effect, 100 complete control), 13 to 15 days
Measured endpoint: Plant response rating, Rice
Please state the value as a number alone, without comment.

chemical_smiles=CCc1cc(C(=O)Nc2ccc(F)cc2)nn1Oc1ccnc(C(F)(F)F)c1 obs_value=0
chemical_smiles=CCCNC(=O)c1cc(CC)n(Oc2ccnc(C(F)(F)F)c2)n1 obs_value=0
chemical_smiles=O=C(NC1CC1)c1cc(CCF)n(Cc2ccnc(C(F)(F)F)c2)n1 obs_value=0
chemical_smiles=O=C(NCC(F)(F)F)c1cc(Br)n(Cc2cccc(C(F)(F)F)c2)n1 obs_value=0
chemical_smiles=CCCc1cc(C(=O)NC2CC2)nn1Cc1cc(C(F)(F)F)nn1C obs_value=30

Query: Give the reported Plant response rating, Rice for O=C(NC1CC1)c1cc(CCCl)n(Cc2ccnc(C(F)(F)F)c2)n1 (system: rice).
Response: 0
